test target: EP3α (Mus musculus, UniProt P30557)
Construct: expressed in transfected cells; host or cells: CHO cells (membrane fraction)
Sequence (P30557 1-365): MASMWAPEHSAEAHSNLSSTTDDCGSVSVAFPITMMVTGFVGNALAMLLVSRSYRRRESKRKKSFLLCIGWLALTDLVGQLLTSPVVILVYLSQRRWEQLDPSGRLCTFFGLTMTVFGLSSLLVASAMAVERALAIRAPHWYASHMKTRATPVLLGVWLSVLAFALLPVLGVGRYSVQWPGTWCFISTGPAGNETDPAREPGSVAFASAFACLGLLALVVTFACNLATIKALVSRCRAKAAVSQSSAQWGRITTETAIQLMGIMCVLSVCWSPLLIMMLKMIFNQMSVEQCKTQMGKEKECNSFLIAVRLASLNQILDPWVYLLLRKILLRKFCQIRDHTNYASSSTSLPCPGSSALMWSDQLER
method summary: Binding assay using expression CHO cell of prostanoid receptor subtype, [3H]-PGE2 binding inhibition (EP3α)
condition info: membrane fraction of CHO cells expressing mouse EP3α; [3H]-PGE2 2.5 nM; Ki=IC50/(1+([C]/Kd)); read-out: Dissociation Constant Ki (μM) EP3α
result type: Ki (µM)

{"columns": ["molecule", "test result"],
 "data": [
  ["COCc1cccc(C[C@H](O)/C=C/[C@H]2[C@H](O)CC(=O)[C@@H]2CCCCCCC(=O)O)c1", 0.82],
  ["COCc1cc(CC(O)/C=C/[C@@H]2[C@@H](C/C=C\\CCCC(=O)O)[C@H](Cl)C[C@H]2O)ccc1O (stereo partly shown)", 3.2]
]}

1. CCCOCc1cccc(CC(O)/C=C/[C@@H]2[C@@H](C/C=C\CCCC(=O)O)[C@H](F)C[C@H]2O)c1 (stereo partly shown)
2. O=C(O)CCCCCC[C@H]1C(=O)C[C@@H](O)[C@@H]1/C=C/[C@@H](O)Cc1cccc(CCF)c1
3. COCc1cccc(C[C@H](O)/C=C/[C@H]2CCC(=O)[C@@H]2C/C=C\CCCC(=O)O)c1
4. CCOCc1cccc(CC(O)/C=C/[C@H]2[C@H](O)CC(=O)[C@@H]2CCc2ccc(C(=O)O)cc2)c1 (stereo partly shown)
# rank by Ki, ascending (min first) Use the labels to give the requested order.
2, 1, 3, 4

The reported measurements were obtained from patent US6586468B1.
